# TESTED ON: wild type human RORγt LBD (Homo sapiens)
# Construct: expressed in transfected cells; host or cells: HEK293T
# METHOD: RORγt Reporter Assay (GAL4-RORγt LBD luciferase in HEK293T cells)
# Assay type: cell-based
# CONDITION: HEK293T cells, compounds for 24 hours; read-out: RORγt reporter Assay, IC50
Entries and their IC50 values follow.
Provide only the numeric value, understood in µM.

# annotated cases, reported IC50 shown
MOLECULE	MEASUREMENT TYPE	NUMERIC RESULT
COc1nc2c(C)cc(C(O)(c3ccc(C(F)(F)F)nc3)c3cncn3C)cc2c(C#N)c1-c1ccc(OC(F)(F)F)cc1 (single isomer, unassigned) [Example 19b]	IC50	0.3
COc1nc2ccc(C(O)(c3ccc(C(F)(F)F)nc3)c3cncn3C)cc2c(Cl)c1-c1ccc(NS(C)(=O)=O)cc1 (stereo not shown)	IC50	0.53
COc1c(-c2ccccc2)c(Cl)nc2ccc(C(O)(c3sc(C)nc3C)c3cncn3C)cc12 (stereo not shown)	IC50	0.03

Let me know recorded IC50 for COc1nc2ccc(C(O)(c3cncn3C)C3CCN(C(C)=O)CC3)cc2c(C#N)c1-c1cccc(C(F)(F)F)c1 (single isomer, unassigned) [Example 2b] , thanks. 0.2

Tell us which IC50 value is on record for COc1nc2ccc(C(O)(c3sc(C)nc3C)c3cnnn3C)cc2c(Cl)c1-c1ccccc1 (stereo not shown) 0.16

Supply recorded IC50 for COc1nc2ccc(C(O)(c3ccc(C(F)(F)F)nc3)c3cncn3C)cc2c(Cl)c1-c1cncnc1 (stereo not shown) here. 0.32

----------
# Test system: IL-17 production by CD4 T cells
# METHOD: Human Th17 Assay (IL-17 production by CD4 T cells under Th17 differentiation conditions)
# Assay type: cell-based
# CONDITION: 3 days, IL-17 in supernatant
MEASUREMENT TYPE: log10 IC50 (log10 of the value in nM)
Base-10 log of IC50, unit nM.

// solved cases for log10 IC50 follow
COMPOUND	NUMERIC RESULT
COc1nc2ccc(C(O)(c3cncn3C)c3cnnn3C)cc2c(Cl)c1-c1cccc(C(F)(F)F)c1 (single isomer, unassigned) [Example 3b]	1.11
COc1nc2ccc(C(O)(c3ccc(C(F)(F)F)nc3)c3cncn3C)cc2c(Cl)c1-c1ccc(Cl)s1 (single isomer, unassigned) [Example 14b]	1.90
COc1nc2ccc(C(O)(c3cncn3C)C3CCN(C(C)=O)CC3)cc2c(Cl)c1-c1cccc(C(F)(F)F)c1 (single isomer, unassigned) [Example 1c]	2.49

Provide only the value of recorded log10 IC50 for COc1nc2ccc(C(O)(c3cncn3C)C3CCN(C(C)=O)CC3)cc2c(C#N)c1-c1cccc(C(F)(F)F)c1 (single isomer, unassigned) [Example 2b] 3.46

# return recorded log10 IC50 for entry COc1nc2ccc(C(O)(c3cnnn3C)c3cnc(C)n3C)cc2c(Cl)c1-c1ccccc1 (single isomer, unassigned) [Example 41b] 0.85

----------
# TESTED ON: wild type human RORγt LBD (Homo sapiens)
# Construct: expressed in transfected cells; host or cells: HEK293T
# Sequence (P51449 269-508 limits assumed): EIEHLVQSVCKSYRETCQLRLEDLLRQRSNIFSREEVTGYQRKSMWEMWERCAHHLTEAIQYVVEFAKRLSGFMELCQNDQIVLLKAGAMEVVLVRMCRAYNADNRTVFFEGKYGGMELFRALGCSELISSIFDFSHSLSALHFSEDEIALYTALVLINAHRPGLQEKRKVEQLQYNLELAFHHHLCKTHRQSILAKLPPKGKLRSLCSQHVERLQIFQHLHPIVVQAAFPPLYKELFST
# METHOD: RORγt Reporter Assay (GAL4-RORγt LBD luciferase in HEK293T cells)
# Format: cell-based
# CONDITION: @ 6 µM; HEK293T cells
MEASUREMENT TYPE: RORγt reporter Assay, % inhibition @ 6 µM (%)
Form entry: value (%) — number only.

COMPOUND	UNIT LABEL	NUMERIC RESULT
COc1nc2c(C)cc(C(O)(c3ccc(C(F)(F)F)nc3)c3cncn3C)cc2c(C#N)c1-c1ccc(OC(F)(F)F)cc1 (single isomer, unassigned) [Example 19b]	%	94
COc1nc2ccc(C(O)(c3cncn3C)C3CCN(C(C)=O)CC3)cc2c(C#N)c1-c1cccc(C(F)(F)F)c1 (single isomer, unassigned)	%	95

For the compound Cc1cc(C(O)(c2ccc(C(F)(F)F)nc2)c2cncn2C)cc2c(C#N)c(-c3ccccc3)c(C#N)nc12 (single isomer, unassigned) [Example 25c] , give its measured RORγt reporter Assay, % inhibition @ 6 µM value. 95
